Here the recorded z-score is given for each entry.
experiment: inhibitors of hydroxyurea-induced Chk1 phosphorylation, primary screen, imaging, HeLa, phospho-Chk1 nuclear intensity (AID 1187); details: hydroxyurea-induced phospho-Chk1 immunofluorescence imaging, higher = more signal
The source made the active and inactive calls. The rule behind the calls is not given here.

Known z-score results, listed for orientation:
{"compound": "C=C(CCCC)C(=O)CC[C@@H](OC(=O)c1cccnc1)c1ccccc1OCCO", "z-score": "-0.227 (inactive)"}
{"compound": "COC1(C)CN(Cc2ccccc2Br)[C@H](/C=C/c2ccccc2)[C@H](Cc2ccccc2)O1 (some centres undefined)", "z-score": "-2.34 (inactive)"}
{"compound": "COc1ccc(NN2C(C(O)c3ccco3)C=CC3C(=O)N(C4CCCCC4)C(=O)C32)cc1 (centres undefined)", "z-score": "-0.504 (inactive)"}
{"compound": "COCCOC(=O)N1C(=O)[C@@]2(c3cc(C#Cc4ccc(OC)cc4)ccc31)[C@H](C(=O)N1CCN(c3ncccn3)CC1)[C@H]1C(=O)O[C@H](c3ccccc3)[C@H](c3ccccc3)N1[C@@H]2c1ccccc1OCCO", "z-score": "-0.0377 (inactive)"}

Request: Which z-score reading was recorded for the compound `C=CC[C@@]12N=C(c3ccc(OCCCO)cc3)O[C@@H]1c1ccccc1N(CCS(=O)(=O)c1ccccc1)C2=O` ?
Response: -0.295 (inactive)

Request: # repeat for `CC(C)(C)OC(=O)CC[C@]1(C(=O)N2CCOCC2)N=C(c2ccc(OCCCO)cc2)O[C@H]1c1ccccc1`
Response: -0.494 (inactive)

Request: # repeat for `COCC(=C=CC[C@H](O)c1cccc(OCCO)c1)C[C@H](O)c1ccccn1`
Response: 0.745 (inactive)

Request: # repeat for `Cc1ccc(S[C@]2(C(=O)NCC(C)C)CC(=O)N(Cc3ccccc3Cl)[C@@H]2c2ccc(CO)cc2I)cc1`
Response: -0.237 (inactive)

Request: # repeat for `C=C(C(=O)CC[C@H](OC(=O)c1cccnc1)c1ccc(CO)o1)C(C)C`
Response: -0.0632 (inactive)

---

tested on: Human papillomavirus type 1a E7 protein (residues 1-88); assay: HPV1a E7 small-molecule binders, primary screen, biochemical, small-molecule microarray, residues 1-88, 635 nm (AID 1129); settings: small-molecule microarray binding, fluorescence 635 nm; higher = more signal
measuredQuantity: composite z-score
Write the number on its own, no unit after it.

{"compound": "C=CCOC(=O)[C@@H]1[C@H]2C(=O)O[C@H](c3ccccc3)[C@H](c3ccccc3)N2[C@H](c2ccc(OCCOC(=O)[C@H]3C[C@H]4C(=O)N[C@@H](CCCCN(C)C)C(=O)N4[C@H]3c3cccc(OCCO)c3)cc2)[C@@]12C(=O)Nc1ccc(I)cc12", "measuredOn": "Human papillomavirus type 1a E7 protein (residues 1-88)", "composite z-score": 1.17}
{"compound": "COCCOC(=O)N1C(=O)[C@@]2(c3cc(C#Cc4ccc(OC)cc4)ccc31)[C@H](C(=O)N1CCCCCCC1)[C@H]1C(=O)O[C@H](c3ccccc3)[C@H](c3ccccc3)N1[C@@H]2c1ccc(O)cc1", "measuredOn": "Human papillomavirus type 1a E7 protein (residues 1-88)", "composite z-score": 1.12}
{"compound": "COc1cc2c(cc1OC)CN(C(=O)[C@H]1[C@@H]3C(=O)O[C@@H](c4ccccc4)[C@@H](c4ccccc4)N3[C@@H](c3ccc(OCCO)cc3)[C@]13C(=O)Nc1ccc(C#CC4(O)CCCCCC4)cc13)CC2", "measuredOn": "Human papillomavirus type 1a E7 protein (residues 1-88)", "composite z-score": 1.21}
{"compound": "O=C1NC(=O)C2C1C=CC(C(O)c1ccc(Br)cc1)N2Nc1ccccn1 (centres undefined)", "measuredOn": "Human papillomavirus type 1a E7 protein (residues 1-88)", "composite z-score": 0.173}
{"compound": "C=CCN1C(=O)[C@@]2(CCC(=O)OC(C)(C)C)N=C(c3ccc(OCCCO)cc3)O[C@H]2c2ccccc21", "measuredOn": "Human papillomavirus type 1a E7 protein (residues 1-88)", "composite z-score": 0.909}
{"compound": "C[C@H]1C2=C3C(CC[C@H]4C(OCc5ccc(F)cc5C(F)(F)F)OC[C@](C)([C@@H]34)N(C(=O)OC(C)(C)C)C2)C(CO)C1CO (some centres undefined)", "measuredOn": "Human papillomavirus type 1a E7 protein (residues 1-88)", "composite z-score": 1.12}
{"compound": "COc1ccc([Si](C)(C)[C@@H]2[C@@H](CCO)O[C@]3(C(=O)N(Cc4cccc(N5C(=O)c6ccccc6Oc6ccccc65)c4)c4ccccc43)[C@H]2C)cc1", "measuredOn": "Human papillomavirus type 1a E7 protein (residues 1-88)", "composite z-score": 0.502}
{"compound": "CC(C)(C)OC(=O)CC[C@]1(C(=O)N2CCOCC2)N=C(c2ccc(OCCCO)cc2)O[C@H]1c1ccccc1", "measuredOn": "Human papillomavirus type 1a E7 protein (residues 1-88)", "composite z-score": 0.645}

Request: Which composite z-score reading was recorded for the compound `COc1ccccc1CN1C(=O)c2ccccc2[C@@H](C(=O)NC(C)C)[C@@H]1c1ccc(CO)cc1` ?
Response: 1.15

Request: # repeat for `NC(=O)NCC#Cc1ccc2c(c1)[C@]1(C(=O)N2)[C@H](c2ccc(O)cc2)N2[C@H](c3ccccc3)[C@H](c3ccccc3)OC(=O)[C@H]2[C@@H]1C(=O)Nc1nc2ccccc2s1`
Response: 0.622

Request: # repeat for `COCCOC(=O)N1C(=O)[C@@]2(c3ccccc31)[C@H](C(=O)N1CCN(c3ncccn3)CC1)[C@H]1C(=O)O[C@H](c3ccccc3)[C@H](c3ccccc3)N1[C@@H]2c1ccc(OCCO)cc1`
Response: 1.21

Request: # repeat for `O=C1O[C@H](c2ccccc2)[C@H](c2ccccc2)N2[C@H]1[C@@H](C(=O)O)[C@]1(C(=O)Nc3ccccc31)[C@H]2c1ccc(O)cc1`
Response: -0.0964

Request: # repeat for `NCCCCCCNC(=O)[C@H]1C[C@H]2C(=O)N[C@@H](Cc3ccccc3)C(=O)N2[C@H]1c1ccc(O)cc1`
Response: 0.692

Request: # repeat for CN1C(=O)C2C=CC(C(O)Cc3ccccc3)N(N(c3ccccc3)c3ccccc3)C2C1=O (centres undefined)
Response: 1.17

Request: # repeat for `CO[C@H]1O[C@H](CO)[C@@H](OC(=O)Nc2ccccc2-c2ccccc2)[C@H](OC(=O)Nc2ccc3c(c2)OCO3)[C@@H]1OC(=O)Nc1ccc2c(c1)OCO2`
Response: 1.27

Request: # repeat for CC=CC(O)C1C=CC2C(=O)N(c3ccccc3)C(=O)C2N1Nc1ccc([N+](=O)[O-])cc1 (centres undefined)
Response: 0.644

Request: # repeat for `COC(=O)Cn1c(C(=O)N2CCCC2)cc2c1C[C@H]1CN(C(=O)c3ccccc3)[C@@](Cc3ccc(F)cc3)(C(=O)OC)[C@@H]21`
Response: -0.25

Request: # repeat for C=C1C2CC3C(=C4C(CO[C@@H]4[C@H]4CCCN4S(=O)(=O)c4ccccc4[N+](=O)[O-])C4C(=O)N(C)C(=O)C34)CC2C(=O)N1C (some centres undefined)
Response: 0.128

Request: # repeat for `O=C1O[C@@H](c2ccccc2)[C@@H](c2ccccc2)N2[C@@H](c3ccccc3OCCO)[C@]3(C(=O)Nc4ccc(C#CC5=CCCCC5)cc43)[C@@H](C(=O)NC[C@H](O)c3ccccc3)[C@H]12`
Response: 1.13

Request: # repeat for `CO[C@H]1O[C@H](CO)[C@@H](OC(=O)Nc2ccc(C(F)(F)F)cc2)[C@H](OC(=O)Nc2ccc3c(c2)OCO3)[C@H]1OC(=O)Nc1ccc2c(c1)OCO2`
Response: 1.17

Request: # repeat for `COC(=O)[C@]1(CCS(=O)(=O)c2ccccc2)N=C(c2ccc(OCCCO)cc2)O[C@@H]1c1ccccc1CN=[N+]=[N-]`
Response: 1.23

Request: # repeat for `O=C(N1CCCCC1)[C@@]1(Cc2ccccc2)COC(c2ccc(OCCCO)cc2)=N1`
Response: 1.2

Request: # repeat for `CCOC(=O)C[C@H]1[C@H](OC(=O)Cc2ccc3c(c2)OCO3)[C@@H](NC(=O)C2CCCCC2)c2cc(OCCCO)ccc2N1C(=O)c1ccc2ccccc2n1`
Response: 0.684

Request: # repeat for CC=CC(O)C1C=CC2C(=O)N(C)C(=O)C2N1N1CCCCC1 (centres undefined)
Response: 1.19

---

tested on: XIP peptide (Xip251-270); experiment: small-molecule binders of XIP peptide, primary screen, biochemical, small-molecule microarray, fluorescence 635/667 nm, 0.5 µg/mL protein (AID 1183); conditions: small-molecule microarray binding, fluorescence 635 nm; higher = more signal
Please note: Condition met applies when composite z-score is 0.3 or greater, and Condition not met applies otherwise.

The following molecules have reported results that may help.
{"molecule": "COCCOC(=O)N1C(=O)[C@@]2(c3cc(C#CCC(C(=O)OC)C(=O)OC)ccc31)[C@H](c1ccc(OCCO)cc1)N1[C@H](c3ccccc3)[C@H](c3ccccc3)OC(=O)[C@H]1[C@@H]2C(=O)N1CCN(c2ncccn2)CC1", "labelClass": "Condition met"}
{"molecule": "CC(C)(C)OC(=O)CC[C@]1(C(=O)N2CCOCC2)N=C(c2ccc(OCCCO)cc2)O[C@H]1c1ccccc1", "labelClass": "Condition met"}
{"molecule": "O=C(O)[C@H]1C[C@H]2C(=O)N3CCC[C@H]3C(=O)N2[C@H]1c1cccc(OCCO)c1", "labelClass": "Condition met"}
{"molecule": "CC(=O)N1Cc2ccccc2C[C@]2(N=C(c3ccc(OCCCO)cc3)O[C@@H]2c2ccccc2)C1=O", "labelClass": "Condition met"}

// switching to the query molecule
Request: Kindly determine if composite z-score recorded for `CC(C)(C)OC(=O)CC[C@@]1(C(=O)O)N=C(c2ccc(OCCCO)cc2)O[C@@H]1c1ccccc1` is above or exactly 0.3.
Response: Condition met
